- Test system: K-562
- PROTOCOL DESCRIPTION: NCI 60 cell line screen (SRB), Leukemia
- Type: cell-based
- ASSAY CONTEXT: K-562 (Leukemia)
Catalogue of Log10TGI readings, one per entry.

COC1OC2(C)CCC3CCCC(CCOC(=O)c4ccc(C(=O)OCCC5CCCC6CCC7(C)OOC56C(OC)O7)cc4)C31OO2 (stereo not drawn) [Compound 11, Bis-ester Dimer]
>−4.00 M
COC1OC2(C)CCC3CCCC(CCOCCC4CCCC5CCC6(C)OOC45C(OC)O6)C31OO2 (stereo not drawn) [Compound 6, Trioxane Ether Dimer]
>−4.00 M

Now for another entry.
(Q) Give a short answer stating reported Log10TGI for CC(=O)O[C@H]1C(=O)[C@@]2(C)[C@H]([C@H](OC(=O)c3ccccc3)[C@]3(O)C[C@H](OC(=O)[C@H](O)[C@@H](NC(=O)c4ccccc4)c4ccccc4)C(C)=C1C3(C)C)[C@]1(OC(C)=O)CO[C@@H]1C[C@@H]2O [Paclitaxel, paclitaxel, reference compound] .
(A) >−4.00 M

* * *

- Test system: HCC-2998
- PROTOCOL DESCRIPTION: NCI 60 cell line screen (SRB), Colon Cancer
- Type: cell-based
- ASSAY CONTEXT: HCC-2998 (Colon Cancer)
ASSAY ENDPOINT: Log10LC50

The following compounds have reported results that may help.
COC1OC2(C)CCC3CCCC(CCOC(=O)c4ccc(C(=O)OCCC5CCCC6CCC7(C)OOC56C(OC)O7)cc4)C31OO2 (stereo not drawn)
>−4.00 M
COC1OC2(C)CCC3CCCC(CCOC(=O)c4cccc(C(=O)OCCC5CCCC6CCC7(C)OOC56C(OC)O7)c4)C31OO2 (stereo not drawn)
>−4.30 M

(Q) Give a short answer stating reported Log10LC50 for C[C@@H]1CC[C@H]2[C@@H](C)C(=O)O[C@@H]3O[C@@]4(C)CC[C@@H]1[C@]32OO4 [QHS, reference compound] .
(A) >−4.00 M

* * *

- Test system: BT-549
- PROTOCOL DESCRIPTION: NCI 60 cell line screen (SRB), Breast Cancer
- Format: cell-based
- ASSAY CONTEXT: BT-549 (Breast Cancer)
ASSAY ENDPOINT: Log10GI50 (M)
Write the value in M as a bare number.

COC1OC2(C)CCC3CCCC(CCOCCC4CCCC5CCC6(C)OOC45C(OC)O6)C31OO2 (stereo not drawn)
−5.89
C[C@@H]1CC[C@H]2[C@@H](C)C(=O)O[C@@H]3O[C@@]4(C)CC[C@@H]1[C@]32OO4 [QHS, reference compound]
−4.06

Now for another entry.
(Q) Give a short answer stating reported Log10GI50 for COC1OC2(C)CCC3CCCC(CCOC(=O)c4ccc(C(=O)OCCC5CCCC6CCC7(C)OOC56C(OC)O7)cc4)C31OO2 (stereo not drawn) .
(A) −5.44

* * *

Catalogue of Log10TGI readings, one per entry.
- System: KM12
- PROTOCOL DESCRIPTION: NCI 60 cell line screen (SRB), Colon Cancer
- Format: cell-based

(Q) Give a short answer stating reported Log10TGI for COC1OC2(C)CCC3CCCC(CCOC(=O)c4cccc(C(=O)OCCC5CCCC6CCC7(C)OOC56C(OC)O7)c4)C31OO2 (stereo not drawn) [Compound 10, Trioxane Bis-ester Dimer] .
(A) >−4.30 M

(Q) Give a short answer stating reported Log10TGI for COC1OC2(C)CCC3CCCC(CCOC(=O)c4ccc(C(=O)OCCC5CCCC6CCC7(C)OOC56C(OC)O7)cc4)C31OO2 (stereo not drawn) [Compound 11, Bis-ester Dimer] .
(A) >−4.00 M

(Q) Give a short answer stating reported Log10TGI for C[C@@H]1CC[C@H]2[C@@H](C)C(=O)O[C@@H]3O[C@@]4(C)CC[C@@H]1[C@]32OO4 [QHS, reference compound] .
(A) >−4.00 M
